- experimental details: Plasma level when given intraduodenally to anesthetized rats from portal sample at 10 min
- Format: ADME, organism-based
- details: rat, read-out: Plasma level
measured attribute: concentration at 10 min (ng/mL)

CCN1C[C@@H]([C@H](O)[C@H](CC2CCCCC2)NC(=O)[C@H](Cc2c[nH]cn2)NC(=O)[C@@H](CC(=O)N(C)CCOCOCCOC)Cc2ccccc2)OC1=O :: 360

====

- experimental details: Log P value at the pH of 6.5
- Format: physicochemical
- details: octanol/water, pH 6.5; read-out: LogD6.5
Binary call on logD: condition met from 2 upward, condition not met beneath that.

CCN1C[C@@H]([C@H](O)[C@H](CC2CCCCC2)NC(=O)[C@H](Cc2cnc[nH]2)NC(=O)[C@@H](CC(=O)N2C[C@H](OCOCCOC)[C@H](OCOCCOC)C2)Cc2ccccc2)OC1=O :: condition not met
CCN1C[C@@H]([C@H](O)[C@H](CC2CCCCC2)NC(=O)[C@H](Cc2cnc[nH]2)NC(=O)[C@@H](CC(=O)N(C)CCO)Cc2ccccc2)OC1=O :: condition not met
CCN1C[C@@H]([C@H](O)[C@H](CC2CCCCC2)NC(=O)[C@H](Cc2c[nH]cn2)NC(=O)[C@H](Cc2ccc(OC)cc2)NC(=O)N(C)CCOCOC)OC1=O :: condition met
CCN1C[C@@H]([C@H](O)[C@H](CC2CCCCC2)NC(=O)[C@H](Cc2cnc[nH]2)NC(=O)[C@H](Cc2ccc(OC)cc2)NC(=O)N2CCOCC2)OC1=O :: condition not met
CCN1C[C@@H]([C@H](O)[C@H](CC2CCCCC2)NC(=O)[C@H](Cc2c[nH]cn2)NC(=O)[C@H](Cc2ccc(OC)cc2)NC(=O)N2C[C@@H](O)[C@@H](O)C2)OC1=O :: condition not met

====

Overview of reported pIC50 across a group of compounds:
- system name: Renin (Homo sapiens, UniProt P00797)
- Sequence (P00797 whole entry): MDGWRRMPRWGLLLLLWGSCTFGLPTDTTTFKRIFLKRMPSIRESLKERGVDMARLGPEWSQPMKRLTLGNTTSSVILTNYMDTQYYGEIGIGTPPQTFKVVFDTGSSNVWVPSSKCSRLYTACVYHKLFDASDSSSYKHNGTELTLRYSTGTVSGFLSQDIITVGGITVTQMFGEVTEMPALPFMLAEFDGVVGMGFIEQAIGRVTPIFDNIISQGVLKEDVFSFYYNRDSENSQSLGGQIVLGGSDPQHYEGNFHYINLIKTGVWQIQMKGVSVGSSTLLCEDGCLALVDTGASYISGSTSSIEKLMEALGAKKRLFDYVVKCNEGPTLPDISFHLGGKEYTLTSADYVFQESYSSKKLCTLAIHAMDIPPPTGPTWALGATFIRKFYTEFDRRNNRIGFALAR
- experimental details: Inhibitory activity against purified human renal renin at pH 6.5
- Format: functional
pIC50: −log10 of the molar value.
measured attribute: pIC50

CCN1C[C@@H]([C@H](O)[C@H](CC2CCCCC2)NC(=O)[C@H](Cc2cnc[nH]2)NC(=O)[C@H](Cc2ccc(OC)cc2)NC(=O)N2CCOCC2)OC1=O :: 8.47
CCN1C[C@@H]([C@H](O)[C@H](CC2CCCCC2)NC(=O)[C@H](Cc2cnc[nH]2)NC(=O)[C@H](Cc2ccc(OC)cc2)NC(=O)N(C)CC(O)CO)OC1=O (stereo partly drawn) :: 8.10
CCN1C[C@@H]([C@H](O)[C@H](CC2CCCCC2)NC(=O)[C@H](Cc2cnc[nH]2)NC(=O)[C@H](Cc2ccc(OC)cc2)NC(=O)N2C[C@H](OCOCCOC)[C@H](OCOCCOC)C2)OC1=O :: 8.07
